All values here come from the kinase profiling compilation of Christmann-Franck et al. (2016).

Target: UniProtKB Q15831
Sequence (Q15831 whole entry, looked up): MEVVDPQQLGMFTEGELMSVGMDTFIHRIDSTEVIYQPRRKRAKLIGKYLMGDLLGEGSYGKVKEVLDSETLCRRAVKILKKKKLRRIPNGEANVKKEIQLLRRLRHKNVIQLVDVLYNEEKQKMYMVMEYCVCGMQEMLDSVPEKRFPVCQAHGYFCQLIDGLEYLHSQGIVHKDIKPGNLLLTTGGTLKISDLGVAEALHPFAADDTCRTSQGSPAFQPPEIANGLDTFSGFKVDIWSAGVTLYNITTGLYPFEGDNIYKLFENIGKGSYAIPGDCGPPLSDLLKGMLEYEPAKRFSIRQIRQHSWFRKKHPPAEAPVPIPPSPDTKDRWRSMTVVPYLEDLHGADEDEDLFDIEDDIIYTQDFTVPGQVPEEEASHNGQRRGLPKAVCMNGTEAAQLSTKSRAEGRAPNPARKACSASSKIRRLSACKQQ
Test: KINOMEscan competition binding
Conditions: compound 10.0 µM
property: kinase still bound, per cent of control (%)
Reply with just the number (in %).

// solved cases for kinase still bound, per cent of control follow
CN1CCN(c2ccc(C(=O)Nc3ncc4c(n3)N(C)c3ccccc3C(=O)N4C)cc2)CC1	100
CN1C(=O)c2ccccc2N(C)c2nc(NS(=O)(=O)c3ccc(N)cc3)ncc21	100
COc1cc(N2CCN(C)CC2)ccc1Nc1ncc2c(n1)N(C)c1sccc1C(=O)N2C	90
Nc1cccc(-c2cc(/C=C3\SC(=O)NC3=O)c[nH]c2=O)c1	19
COc1cc(N2CCC(O)CC2)ccc1Nc1ncc2c(n1)N1CCc3cccc(c31)C(=O)N2C	91

Which measured kinase still bound, per cent of control value corresponds to `N=C1NC(=O)/C(=C/c2ccc(-c3cncc4ccccc34)o2)S1` ?
6

And the next one, `O=C1NC(=S)S/C1=C\c1ccc(-c2cncc3ccccc23)o1` ?
17

Repeat with `COc1cc(N2CCN(C)CC2)ccc1Nc1ncc2c(n1)Nc1ccccc1NC2=O`
100

Also, `CS(=O)(=O)Nc1ccc(-c2cc(/C=C3\SC(=N)NC3=O)c[nH]c2=O)cc1` please.
7

Now try `CS(=O)(=O)Nc1ccc(-c2cncc(/C=C3\SC(=N)NC3=O)c2)cc1` .
17

====

Listed here: items and their measured kinase still bound, per cent of control.
Biological target: CDK16 (human)
Test: KINOMEscan competition binding
Conditions: compound 10.0 µM
Value expressed in %; do not type the unit.

Some solved cases for reference:
COc1cc(N2CCN(C)CC2)ccc1Nc1ncc2c(n1)N(C)c1ccccc1N(C)C2=O	93
CSC1=NC(=O)/C(=C/c2ccc(-c3ccc(S(N)(=O)=O)cc3)o2)S1	0.1
NS(=O)(=O)c1ccc(-c2ccc(/C=C3\SC(=S)NC3=O)o2)cc1	10
N=C1NC(=O)/C(=C/c2ccc(-c3ccc(Cl)cc3)o2)S1	14
COc1cc(N2CCN(C)CC2)ccc1Nc1ncc2c(n1)N(C)c1sccc1C(=O)N2C	97

GET /values?readout=kinase still bound, per cent of control&system=CDK16 (human)&item= `N=C1NC(=O)/C(=C/c2ccc(-c3ccc(C(N)=O)cc3O)o2)S1`
0.65

Ok, now `N=C1NC(=O)/C(=C/c2ccc(-c3ccc(C(=O)Nc4ccc(N5CCNCC5)cc4)cc3O)o2)S1`
18

====

Target: DAPK3 (human) (UniProt O43293)
Sequence (O43293 whole entry, looked up): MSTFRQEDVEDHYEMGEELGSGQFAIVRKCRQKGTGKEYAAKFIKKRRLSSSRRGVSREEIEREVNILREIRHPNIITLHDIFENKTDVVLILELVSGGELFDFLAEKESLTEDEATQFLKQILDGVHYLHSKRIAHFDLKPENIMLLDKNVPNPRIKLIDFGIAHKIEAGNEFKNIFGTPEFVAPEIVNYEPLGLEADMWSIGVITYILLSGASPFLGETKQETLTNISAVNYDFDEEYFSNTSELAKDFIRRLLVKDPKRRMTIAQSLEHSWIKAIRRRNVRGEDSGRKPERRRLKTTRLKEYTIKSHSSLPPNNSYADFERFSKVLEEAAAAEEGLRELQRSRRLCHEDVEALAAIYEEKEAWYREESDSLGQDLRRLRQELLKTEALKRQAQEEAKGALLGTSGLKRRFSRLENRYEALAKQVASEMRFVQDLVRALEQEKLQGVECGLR
Test: KINOMEscan competition binding
Conditions: compound 10.0 µM
# if measured kinase still bound, per cent of control < 9%: Fulfilled  # else: Not fulfilled

Please review the following examples before continuing.
O=C1NC(=O)/C(=C/c2c[nH]c(=O)c(-c3ccc(C(=O)Nc4ccc(N5CCNCC5)cc4)cc3)c2)S1	Fulfilled
COc1cc(N2CCN(C)CC2)ccc1Nc1ncc2c(n1)N1CCC[C@H]1CC(=O)N2C	Not fulfilled
CS(=O)(=O)Nc1ccc(-c2ccc(/C=C3\SC(=N)NC3=O)o2)cc1	Not fulfilled

Does the reported kinase still bound, per cent of control of `O=C1NC(=S)S/C1=C\c1ccc(-c2cccc3ccccc23)o1` stay below 9%?
Not fulfilled

Try this molecule too: `CN1C(=O)[C@H]2CCC[C@H]2N(C2CCCC2)c2nc(Nc3ccc(C(N)=O)cc3)ncc21`
Not fulfilled

====

Biological target: UniProt Q9UBE8
Sequence (Q9UBE8 whole entry, looked up): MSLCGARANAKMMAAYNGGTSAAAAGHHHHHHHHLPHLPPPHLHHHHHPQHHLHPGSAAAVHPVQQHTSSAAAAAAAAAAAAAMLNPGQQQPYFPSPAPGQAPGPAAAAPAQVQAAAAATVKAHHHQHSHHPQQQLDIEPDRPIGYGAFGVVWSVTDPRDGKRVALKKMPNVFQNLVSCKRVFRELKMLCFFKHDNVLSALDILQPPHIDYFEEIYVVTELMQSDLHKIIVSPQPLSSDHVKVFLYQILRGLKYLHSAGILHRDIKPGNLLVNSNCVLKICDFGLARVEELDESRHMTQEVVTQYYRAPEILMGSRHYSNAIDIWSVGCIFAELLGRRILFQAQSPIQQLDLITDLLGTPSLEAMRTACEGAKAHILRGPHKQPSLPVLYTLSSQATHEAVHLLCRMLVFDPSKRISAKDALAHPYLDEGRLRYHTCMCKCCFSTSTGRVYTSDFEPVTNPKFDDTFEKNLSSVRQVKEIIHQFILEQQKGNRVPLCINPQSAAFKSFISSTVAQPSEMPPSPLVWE
Experiment: KINOMEscan competition binding
Details: compound 10.0 µM
property: kinase still bound, per cent of control (%)
# number only, unit % dropped from output

Below, each entry is followed by its recorded kinase still bound, per cent of control result.
CN1C(=O)[C@H]2CCC[C@H]2N(C2CCCC2)c2nc(Nc3ccc(C(N)=O)cc3)ncc21	16
COc1cc(N2CCN(C)CC2)ccc1Nc1ncc2c(n1)N(C)c1ccccc1N(C)C2=O	100
CN1CCN(c2ccc(C(=O)Nc3ncc4c(n3)N(C)c3ccccc3C(=O)N4C)cc2)CC1	100
O=C1NC(=O)/C(=C/c2c[nH]c(=O)c(-c3ccc(N4CCNCC4)nc3)c2)S1	97
CN1C(=O)[C@H]2CCC[C@H]2N(C2CCCC2)c2nc(Nc3ccc4ncccc4c3)ncc21	12

Using the record for `COc1cc(N2CCN(C)CC2)ccc1Nc1ncc2c(n1)N(C)c1sccc1C(=O)N2C` , report its kinase still bound, per cent of control.
100

Repeat for the following molecule: `CN1C(=O)c2ccccc2N(C)c2nc(NS(=O)(=O)c3ccc(N)cc3)ncc21`
100

Same question for `COc1cc(N2CCC(O)CC2)ccc1Nc1ncc2c(n1)N1CCc3cccc(c31)C(=O)N2C` please.
73

For `COc1cc(N2CCC(C(N)=O)CC2)ccc1Nc1ncc2c(n1)N(C1CCCC1)[C@@H]1CCC[C@@H]1C(=O)N2C` then?
31

====

Target: MYLK4 (human)
Assay: KINOMEscan competition binding
Details: compound 10.0 µM
property: kinase still bound, per cent of control
Give the number first and the unit second.

CS(=O)(=O)Nc1ccc(-c2cncc(/C=C3\SC(=N)NC3=O)c2)cc1	29%
CSC1=NC(=O)/C(=C/c2ccc(-c3ccc(S(N)(=O)=O)cc3)o2)S1	19%
Nc1cccc(-c2cc(/C=C3\SC(=O)NC3=O)c[nH]c2=O)c1	2.8%

Enter reported kinase still bound, per cent of control observed with MYLK4 (human) for `NS(=O)(=O)c1ccc(-c2ccc(/C=C3\C(=O)Nc4ccccc43)o2)cc1`
3.1%

Another compound to check: `NS(=O)(=O)c1ccc(-c2ccc(/C=C3\C(=O)Nc4cccc(Br)c43)o2)cc1`
1.8%

Cool, now `N=C1NC(=O)/C(=C/c2ccc(-c3cnc4ccccc4c3)o2)S1`
13%

// repeat for `CN1C(=O)c2ccccc2N(C)c2nc(NS(=O)(=O)c3ccc(N)cc3)ncc21` and report
100%

And the next one, `N=C1NC(=O)/C(=C/c2ccc(-c3csc4ccccc34)o2)S1` ?
32%

Then this compound: `CN1CCN(c2ccc(C(=O)Nc3ncc4c(n3)N(C)c3ccccc3C(=O)N4C)cc2)CC1`
100%

// query: `CC(C)Oc1cc(N2CCN(C)CC2)ccc1Nc1ncc2c(n1)N(C)c1ccccc1C(=O)N2`
2.1%

====

Target: EPHA4 (human) (UniProt P54764)
Sequence (P54764 whole entry, looked up): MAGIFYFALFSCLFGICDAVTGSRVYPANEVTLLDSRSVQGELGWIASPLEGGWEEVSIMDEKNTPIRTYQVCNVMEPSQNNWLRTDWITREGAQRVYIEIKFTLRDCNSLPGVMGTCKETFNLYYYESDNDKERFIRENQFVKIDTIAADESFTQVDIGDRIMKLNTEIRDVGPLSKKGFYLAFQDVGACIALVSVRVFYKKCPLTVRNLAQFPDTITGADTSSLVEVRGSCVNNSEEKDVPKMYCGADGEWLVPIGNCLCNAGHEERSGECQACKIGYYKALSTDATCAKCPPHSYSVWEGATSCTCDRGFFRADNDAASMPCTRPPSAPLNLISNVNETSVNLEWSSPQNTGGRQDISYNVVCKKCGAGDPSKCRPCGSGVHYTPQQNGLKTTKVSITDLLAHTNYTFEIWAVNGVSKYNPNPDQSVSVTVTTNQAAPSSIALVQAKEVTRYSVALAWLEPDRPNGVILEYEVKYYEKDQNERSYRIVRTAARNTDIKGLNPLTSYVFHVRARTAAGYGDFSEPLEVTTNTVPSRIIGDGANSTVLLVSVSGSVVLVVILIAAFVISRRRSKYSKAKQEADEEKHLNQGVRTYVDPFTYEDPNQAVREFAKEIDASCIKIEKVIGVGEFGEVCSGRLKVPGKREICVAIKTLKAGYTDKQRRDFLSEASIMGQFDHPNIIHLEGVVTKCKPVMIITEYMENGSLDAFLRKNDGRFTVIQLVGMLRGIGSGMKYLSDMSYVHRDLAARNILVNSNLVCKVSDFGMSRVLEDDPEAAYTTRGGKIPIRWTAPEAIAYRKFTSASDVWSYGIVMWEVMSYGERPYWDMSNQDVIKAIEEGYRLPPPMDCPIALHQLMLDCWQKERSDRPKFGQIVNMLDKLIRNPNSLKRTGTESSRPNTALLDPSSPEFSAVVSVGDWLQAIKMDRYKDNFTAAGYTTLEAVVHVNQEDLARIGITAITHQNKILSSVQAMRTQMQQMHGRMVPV
Experiment: KINOMEscan competition binding
Conditions: compound 10.0 µM
property: kinase still bound, per cent of control (%)
Your answer is read as %, so omit the unit and give the number.

Here's what some known entries look like.
COc1cc(N2CCC(O)CC2)ccc1Nc1ncc2c(n1)N1CCc3cccc(c31)C(=O)N2C	98
CN1C(=O)c2ccccc2N(C)c2nc(Nc3ccc(N4CCC(O)CC4)cc3)ncc21	97
CN1CCN(c2ccc(C(=O)Nc3ncc4c(n3)N(C)c3ccccc3C(=O)N4C)cc2)CC1	97
CN1C(=O)c2ccccc2N(C)c2nc(NS(=O)(=O)c3ccc(N)cc3)ncc21	100
COc1cc(N2CCN(C)CC2)ccc1Nc1ncc2c(n1)N(C)c1ccccc1N(C)C2=O	95
COc1cc(N2CCN(C)CC2)ccc1Nc1ncc2c(n1)N(C)c1sccc1C(=O)N2C	100
COc1cc(N2CCN(C)CC2)ccc1Nc1ncc2c(n1)Nc1ccccc1NC2=O	100

Find the measured kinase still bound, per cent of control: item `O=C1NC(=O)/C(=C/c2c[nH]c(=O)c(-c3ccc(N4CCNCC4)nc3)c2)S1` , target or system EPHA4 (human) (UniProt P54764).
99

====

Target: PAK1 (human)
Assay: KINOMEscan competition binding
Settings: compound 10.0 µM
property: kinase still bound, per cent of control (%)
Please reply with the bare figure in % and do not write the unit itself.

Give the reported kinase still bound, per cent of control for `COc1cc(N2CCN(C)CC2)ccc1Nc1ncc2c(n1)N(C)c1sccc1C(=O)N2C` (system: PAK1 (human)).
81

====

Target: BRSK2 (human) (UniProt Q8IWQ3)
Sequence (Q8IWQ3 whole entry, looked up): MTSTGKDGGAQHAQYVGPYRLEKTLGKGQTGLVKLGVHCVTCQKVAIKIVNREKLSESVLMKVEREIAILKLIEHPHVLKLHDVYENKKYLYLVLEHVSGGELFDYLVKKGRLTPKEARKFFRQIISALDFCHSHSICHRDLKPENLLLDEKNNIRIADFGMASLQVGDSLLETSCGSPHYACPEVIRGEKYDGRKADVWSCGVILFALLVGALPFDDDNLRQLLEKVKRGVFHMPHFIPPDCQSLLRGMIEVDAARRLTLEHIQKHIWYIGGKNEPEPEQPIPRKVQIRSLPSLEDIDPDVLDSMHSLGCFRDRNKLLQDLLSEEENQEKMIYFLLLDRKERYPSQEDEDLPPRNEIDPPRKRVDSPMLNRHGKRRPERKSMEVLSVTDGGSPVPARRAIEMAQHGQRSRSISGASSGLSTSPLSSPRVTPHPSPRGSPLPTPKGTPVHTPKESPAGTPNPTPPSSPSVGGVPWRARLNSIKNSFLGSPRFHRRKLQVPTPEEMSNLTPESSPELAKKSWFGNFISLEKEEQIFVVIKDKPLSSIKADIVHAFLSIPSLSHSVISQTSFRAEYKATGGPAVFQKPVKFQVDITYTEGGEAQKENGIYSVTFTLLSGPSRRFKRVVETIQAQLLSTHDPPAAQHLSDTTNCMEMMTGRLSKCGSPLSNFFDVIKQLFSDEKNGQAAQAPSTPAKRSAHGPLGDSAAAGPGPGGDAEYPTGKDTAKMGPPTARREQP
Assay: KINOMEscan competition binding
Conditions: compound 10.0 µM
Recorded kinase still bound, per cent of control, one value per entry.
State just the number; it will be interpreted in %.

Please review the following examples before continuing.
CN1CCN(c2ccc(C(=O)Nc3ncc4c(n3)N(C)c3ccccc3C(=O)N4C)cc2)CC1	100
COc1cc(N2CCN(C)CC2)ccc1Nc1ncc2c(n1)N(C)c1sccc1C(=O)N2C	100
N=C1NC(=O)/C(=C/c2ccc(-c3cncc4ccccc34)o2)S1	7.1
CN1C(=O)c2ccccc2N(C)c2nc(Nc3ccc(N4CCC(O)CC4)cc3)ncc21	48
O=C1NC(=S)S/C1=C\c1ccc(-c2cncc3ccccc23)o1	29
CN1C(=O)c2ccccc2N(C)c2nc(NS(=O)(=O)c3ccc(N)cc3)ncc21	100

Here is the next item to consider.
Tell me the measured kinase still bound, per cent of control of `N=C1NC(=O)/C(=C/c2ccc(-c3ccccc3O)o2)S1` , please.
29

====

Target: UniProtKB Q08881
Sequence (Q08881 whole entry, looked up): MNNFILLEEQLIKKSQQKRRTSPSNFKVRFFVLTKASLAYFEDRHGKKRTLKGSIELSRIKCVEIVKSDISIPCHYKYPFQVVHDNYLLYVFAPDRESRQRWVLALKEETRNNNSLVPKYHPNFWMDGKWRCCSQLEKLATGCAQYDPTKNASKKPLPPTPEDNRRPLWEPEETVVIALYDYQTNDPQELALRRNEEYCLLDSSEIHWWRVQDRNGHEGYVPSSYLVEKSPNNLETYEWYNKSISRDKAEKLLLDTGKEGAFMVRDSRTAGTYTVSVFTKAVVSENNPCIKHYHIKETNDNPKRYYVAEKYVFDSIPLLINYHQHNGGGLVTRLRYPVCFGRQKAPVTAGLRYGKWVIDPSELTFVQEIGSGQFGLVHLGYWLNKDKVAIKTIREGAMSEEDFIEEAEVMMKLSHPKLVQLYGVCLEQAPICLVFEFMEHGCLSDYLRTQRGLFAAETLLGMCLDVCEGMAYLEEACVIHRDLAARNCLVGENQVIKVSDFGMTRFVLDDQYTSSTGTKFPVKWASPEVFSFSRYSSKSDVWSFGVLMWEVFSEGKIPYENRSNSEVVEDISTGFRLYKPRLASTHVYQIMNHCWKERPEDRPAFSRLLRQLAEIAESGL
Experiment: KINOMEscan competition binding
Settings: compound 10.0 µM
property: kinase still bound, per cent of control (%)
Report only the number, with the unit % understood.

Sample answers from the record:
CN1C(=O)c2ccccc2N(C)c2nc(Nc3ccc(N4CCC(O)CC4)cc3)ncc21	96
COc1cc(N2CCN(C)CC2)ccc1Nc1ncc2c(n1)N(C)c1ccccc1N(C)C2=O	98
CN1C(=O)c2ccccc2N(C)c2nc(NS(=O)(=O)c3ccc(N)cc3)ncc21	100

Please look up its kinase still bound, per cent of control: `COc1cc(N2CCC(O)CC2)ccc1Nc1ncc2c(n1)N1CCc3cccc(c31)C(=O)N2C`
90

Another compound to check: `O=C1NC(=O)/C(=C/c2c[nH]c(=O)c(-c3ccc(N4CCNCC4)nc3)c2)S1`
89

Next compound: `CN1CCN(c2ccc(C(=O)Nc3ncc4c(n3)N(C)c3ccccc3C(=O)N4C)cc2)CC1`
100

Request: `COc1cc(N2CCN(C)CC2)ccc1Nc1ncc2c(n1)Nc1ccccc1NC2=O`
100

Again, but for `COc1cc(N2CCN(C)CC2)ccc1Nc1ncc2c(n1)N(C)c1sccc1C(=O)N2C`
81
